// data source = PubChem BioAssay AID2060622

viability, T/C values by entry
# Tested on: 242566-281-R-J2-PDC complex spheroid viability
# procedure_summary: Anticancer human tumor 242566-281-R-J2-PDC patient-derived pancreatic carcinoma cell line growth inhibition [CLK]
# condition_description: second compound 1 µM; first compound 1 µM; stronger effect = lower value
experimental_readout: viability, T/C (%)

[[record]]
compound = "COC1C=CCC(C)C(C)S(=O)(=O)NC(=O)c2ccc3c(c2)N(CC2CCC21)CC1(CCCc2cc(Cl)ccc21)CO3 (stereo not drawn) + CN1CCN(c2cc(C(=O)Nc3cc4cc(-c5cnn(C)c5)ccc4cn3)ccn2)CC1"
experimental_readout = "viability, T/C"
experimental_value = 4.79

[[record]]
compound = "CCc1c2c(nc3ccc(O)cc13)-c1cc3c(c(=O)n1C2)COC(=O)[C@]3(O)CC + CNC(=O)c1ccc(Nc2nc(OC3CCCC3)c3c(-c4ccc5nc(C)oc5c4)c[nH]c3n2)c(OC)c1"
experimental_readout = "viability, T/C"
experimental_value = 2.15

[[record]]
compound = "COc1ccc([C@@H](O)c2cc(-c3ncnc4cc(N5CCOCC5)ccc34)c(F)cc2Cl)nn1 + CN1CCN(c2cc(C(=O)Nc3cc4cc(-c5cnn(C)c5)ccc4cn3)ccn2)CC1"
experimental_readout = "viability, T/C"
experimental_value = 4.46


====

Each entry below lists one item and its recorded viability, T/C value.
# Test system: 242566-281-R-J2-PDC complex spheroid viability
# procedure_summary: Anticancer human tumor 242566-281-R-J2-PDC cell line growth inhibition [CLK];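 also: spheroids exposed to compounds for 7 days before readout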;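 as to viability, T/C: 100% = DMSO vehicle control wells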
# condition_description: second compound 0.316 µM; first compound 1 µM; stronger effect = lower value
experimental_readout: viability, T/C (%)

[[record]]
compound = "COc1ccc([C@@H](O)c2cc(-c3ncnc4cc(N5CCOCC5)ccc34)c(F)cc2Cl)nn1 + CN1CCN(c2cc(C(=O)Nc3cc4cc(-c5cnn(C)c5)ccc4cn3)ccn2)CC1"
experimental_value = 20.3

[[record]]
compound = "Nc1ccccc1NC(=O)c1ccc(CNC(=O)OCc2cccnc2)cc1 + CNC(=O)c1ccc(Nc2nc(OC3CCCC3)c3c(-c4ccc5nc(C)oc5c4)c[nH]c3n2)c(OC)c1"
experimental_value = 94.7

[[record]]
compound = "O=c1[nH]cc(F)c(=O)[nH]1 + CN1CCN(c2cc(C(=O)Nc3cc4cc(-c5cnn(C)c5)ccc4cn3)ccn2)CC1"
experimental_value = 25.4


====

# Test system: 242566-281-R-J2-PDC complex spheroid viability
# procedure_summary: Anticancer human tumor 242566-281-R-J2-PDC cell line growth inhibition [CLK];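 also: spheroids exposed to compounds for 7 days before readout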
# condition_description: curve of compound
# Lookup of reported IC50 keyed by entry
experimental_readout: IC50

[[record]]
compound = "C=CC(=O)N1CCN(c2nc(=O)n(-c3c(C)ccnc3C(C)C)c3nc(-c4c(O)cccc4F)c(F)cc23)C(C)C1 (stereo not drawn)"
experimental_value = "> 10 µM"

[[record]]
compound = "COc1ccc([C@@H](O)c2cc(-c3ncnc4cc(N5CCOCC5)ccc34)c(F)cc2Cl)nn1"
experimental_value = "> 10 µM"

[[record]]
compound = "O=C(c1cc(Cc2n[nH]c(=O)c3ccccc23)ccc1F)N1CCN(C(=O)C2CC2)CC1"
experimental_value = "> 10 µM"


====

# Test system: 242566-281-R-J2-PDC complex spheroid viability
# procedure_summary: Anticancer human tumor 242566-281-R-J2-PDC cell line growth inhibition [CLK];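 also: spheroids exposed to compounds for 7 days before readout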;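 as to viability, T/C: 100% = DMSO vehicle control wells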
# condition_description: second compound 0.1 µM; first compound 3.16 µM; stronger effect = lower value
experimental_readout: viability, T/C

[[record]]
compound = "C#Cc1c(F)ccc2cc(O)cc(-c3ncc4c(N5CC6CCC(C5)N6)nc(OCC56CCCN5CC(F)C6)nc4c3F)c12 (stereo not given) + CNC(=O)c1ccc(Nc2nc(OC3CCCC3)c3c(-c4ccc5nc(C)oc5c4)c[nH]c3n2)c(OC)c1"
experimental_readout = "viability, T/C"
experimental_value = "42.2%"

[[record]]
compound = "C=CC(=O)N1CCN(c2nc(=O)n(-c3c(C)ccnc3C(C)C)c3nc(-c4c(O)cccc4F)c(F)cc23)C(C)C1 (stereo not given) + CN1CCN(c2cc(C(=O)Nc3cc4cc(-c5cnn(C)c5)ccc4cn3)ccn2)CC1"
experimental_readout = "viability, T/C"
experimental_value = "105%"

[[record]]
compound = "CC1COCCN1c1cc(C2(S(C)(=N)=O)CC2)nc(-c2ccnc3[nH]ccc23)n1 (stereo not given) + CNC(=O)c1ccc(Nc2nc(OC3CCCC3)c3c(-c4ccc5nc(C)oc5c4)c[nH]c3n2)c(OC)c1"
experimental_readout = "viability, T/C"
experimental_value = "93%"

[[record]]
compound = "C#Cc1c(F)ccc2cc(O)cc(-c3ncc4c(N5CC6CCC(C5)N6)nc(OCC56CCCN5CC(F)C6)nc4c3F)c12 (stereo not given) + CN1CCN(c2cc(C(=O)Nc3cc4cc(-c5cnn(C)c5)ccc4cn3)ccn2)CC1"
experimental_readout = "viability, T/C"
experimental_value = "18.5%"

[[record]]
compound = "O=c1[nH]cc(F)c(=O)[nH]1 + CNC(=O)c1ccc(Nc2nc(OC3CCCC3)c3c(-c4ccc5nc(C)oc5c4)c[nH]c3n2)c(OC)c1"
experimental_readout = "viability, T/C"
experimental_value = "63.9%"

